Biological target: PHGDH (Homo sapiens, UniProt O43175)
Construct: The full length version of PHGDH enzyme was expressed in BL21 (DE3) E. coli; HIS-tag (N); TEV cleavage site (N)
Sequence (O43175 whole entry): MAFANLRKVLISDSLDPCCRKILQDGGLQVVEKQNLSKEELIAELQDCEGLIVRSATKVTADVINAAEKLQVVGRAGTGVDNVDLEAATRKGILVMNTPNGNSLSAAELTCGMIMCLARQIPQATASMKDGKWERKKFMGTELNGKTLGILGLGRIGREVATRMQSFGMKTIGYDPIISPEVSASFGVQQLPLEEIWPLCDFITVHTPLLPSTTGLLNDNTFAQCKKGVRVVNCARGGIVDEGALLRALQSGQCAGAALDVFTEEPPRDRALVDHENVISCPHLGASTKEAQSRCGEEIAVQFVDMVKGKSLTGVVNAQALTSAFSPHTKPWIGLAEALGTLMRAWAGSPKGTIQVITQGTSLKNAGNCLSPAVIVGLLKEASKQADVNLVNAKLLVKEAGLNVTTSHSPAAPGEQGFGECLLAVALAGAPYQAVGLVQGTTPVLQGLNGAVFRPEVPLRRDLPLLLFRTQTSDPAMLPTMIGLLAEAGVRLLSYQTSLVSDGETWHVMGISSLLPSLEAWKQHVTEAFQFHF
Experiment: 3-Phosphoglycerate dehydrogenase (PHGDH) Fluorescence Intensity Assay
Settings: full length recombinant PHGDH, 500 μM NAD and 500 μM 3-PG, 240 minutes incubation, room temperature
Observation Type: pIC50
pIC50 (log units): -log10 of the concentration in mol/L.

Examples with answers:
>>> numeric_value("Cc1cc2c(cc(C(=O)N[C@H](C)c3ccc(C4(C(=O)O)CCOCC4)cc3)n2C)c(F)c1F")
7.51
>>> numeric_value("Cc1cc(Cl)c2cc(C(=O)N[C@H](C)c3ccc(C4(C(=O)O)CCOCC4)cc3)n(C)c2c1")
7.60
>>> numeric_value("Cc1cc2c(cc(C(=O)N[C@H](C)c3ccc(C4(C(=O)O)CCOCC4)cc3)n2C)c(Cl)c1Cl")
8.22

Provide one value: measured pIC50 of `Cc1cc2c(cc1Cl)cc(C(=O)N[C@H](C)c1ccc(C3(C(=O)O)CCOCC3)cc1)n2C` 6.03

Provide one value: measured pIC50 of `Cc1cc2c(cc(C(=O)N[C@H](C)c3ccc(C4(C(=O)O)CCOCC4)cc3)n2C)c(F)c1Cl` 7.57

Provide one value: measured pIC50 of `Cc1cc2c(cc(C(=O)N[C@H](C)c3ccc(C4(C(=O)O)CCOCC4)cc3)n2C)c(Cl)c1F` 8.00

---

Test: Drug transport across human Caco-2 cells (permeability)
Type: in vitro ADME
Details: apical-to-basal (absorptive) apparent permeability across Caco-2 monolayers, pH 7.2, 37° C., read-out: PEAB
Would you mind labelling by Papp A→B? At or over 100 nm/s is true, under is false.

Study these solved cases before continuing.
>>> label_value("Cc1cc(Cl)c2cc(C(=O)N[C@H](C)c3ccc(S(=O)(=O)C4(C(=O)O)CCCC4)cc3)n(C)c2c1 [Comp-2, reference compound]")
"false"
>>> label_value("Cc1cc2c(cc(C(=O)N[C@H](C)c3ccc(C4(C(=O)O)CCOCC4)cc3)n2C)c(F)c1F")
"true"
>>> label_value("Cc1cc(Cl)c2cc(C(=O)N[C@H](C)c3ccc(S(=O)(=O)C4(C(=O)O)CC4)cc3)n(C)c2c1 [Comp-3, reference compound]")
"false"
>>> label_value("Cc1cc2c(cc1Cl)cc(C(=O)N[C@H](C)c1ccc(C3(C(=O)O)CCOCC3)cc1)n2C")
"false"
>>> label_value("Cc1cc2c(cc(C(=O)N[C@H](C)c3ccc(C4(C(=O)O)CCOCC4)cc3)n2C)c(F)c1Cl")
"true"

Check the entry `Cc1cc2c(cc(C(=O)N[C@H](C)c3ccc(C4(C(=O)O)CCOCC4)cc3)n2C)c(Cl)c1Cl` : does Papp A→B equal or exceed 100 nm/s? true

Check the entry `Cc1cc2c(cc(C(=O)N[C@H](C)c3ccc(C4(C(=O)O)CCOCC4)cc3)n2C)c(Cl)c1F` : does Papp A→B equal or exceed 100 nm/s? true

Check the entry Cc1cc(Cl)c2cc(C(=O)N[C@H](C)c3ccc(S(=O)(=O)C4(C(=O)O)CCOCC4)cc3)n(C)c2c1 [Comp-1, reference compound] : does Papp A→B equal or exceed 100 nm/s? false

---

Assay: Drug transport across human Caco-2 cells (permeability)
Assay type: in vitro ADME
Conditions: PEBA/PEAB, Caco-2 monolayers, pH 7.2, 37° C.
We label by threshold. Values of efflux ratio strictly beneath 1 are class 1. Values of 1 and up are class 0.

Study these solved cases before continuing.
>>> label_value("Cc1cc2c(cc(C(=O)N[C@H](C)c3ccc(C4(C(=O)O)CCOCC4)cc3)n2C)c(F)c1F [Example 4]")
"class 1"
>>> label_value("Cc1cc2c(cc(C(=O)N[C@H](C)c3ccc(C4(C(=O)O)CCOCC4)cc3)n2C)c(F)c1Cl [Example 2]")
"class 0"
>>> label_value("Cc1cc2c(cc1Cl)cc(C(=O)N[C@H](C)c1ccc(C3(C(=O)O)CCOCC3)cc1)n2C [Example 6]")
"class 0"
>>> label_value("Cc1cc(Cl)c2cc(C(=O)N[C@H](C)c3ccc(S(=O)(=O)C4(C(=O)O)CC4)cc3)n(C)c2c1 [Comp-3, reference compound]")
"class 0"
>>> label_value("Cc1cc2c(cc(C(=O)N[C@H](C)c3ccc(C4(C(=O)O)CCOCC4)cc3)n2C)c(Cl)c1F [Example 3]")
"class 1"
>>> label_value("Cc1cc(Cl)c2cc(C(=O)N[C@H](C)c3ccc(S(=O)(=O)C4(C(=O)O)CCCC4)cc3)n(C)c2c1 [Comp-2, reference compound]")
"class 0"
>>> label_value("Cc1cc2c(cc(C(=O)N[C@H](C)c3ccc(C4(C(=O)O)CCOCC4)cc3)n2C)c(Cl)c1Cl [Example 1]")
"class 1"

Here is the next item to consider.
Decide: efflux ratio of Cc1cc(Cl)c2cc(C(=O)N[C@H](C)c3ccc(C4(C(=O)O)CCOCC4)cc3)n(C)c2c1 [Example 5] strictly below 1? class 0

---

Reported Papp B→A is given for each of the following compounds.
Assay: Drug transport across human Caco-2 cells (permeability)
Assay type: in vitro ADME
Settings: basal-to-apical (secretory) apparent permeability across Caco-2 monolayers, pH 7.2, 37° C., read-out: PEBA
// note: answer is a bare numeric in ×10⁻⁶ cm/s

>>> numeric_value("Cc1cc2c(cc(C(=O)N[C@H](C)c3ccc(C4(C(=O)O)CCOCC4)cc3)n2C)c(F)c1F [Example 4]")
9.2
>>> numeric_value("Cc1cc2c(cc(C(=O)N[C@H](C)c3ccc(C4(C(=O)O)CCOCC4)cc3)n2C)c(F)c1Cl [Example 2]")
13
>>> numeric_value("Cc1cc(Cl)c2cc(C(=O)N[C@H](C)c3ccc(S(=O)(=O)C4(C(=O)O)CCOCC4)cc3)n(C)c2c1 [Comp-1, reference compound]")
0.2
>>> numeric_value("Cc1cc2c(cc(C(=O)N[C@H](C)c3ccc(C4(C(=O)O)CCOCC4)cc3)n2C)c(Cl)c1Cl [Example 1]")
14.6
>>> numeric_value("Cc1cc(Cl)c2cc(C(=O)N[C@H](C)c3ccc(S(=O)(=O)C4(C(=O)O)CC4)cc3)n(C)c2c1 [Comp-3, reference compound]")
1.7
>>> numeric_value("Cc1cc(Cl)c2cc(C(=O)N[C@H](C)c3ccc(S(=O)(=O)C4(C(=O)O)CCCC4)cc3)n(C)c2c1 [Comp-2, reference compound]")
0.4
>>> numeric_value("Cc1cc(Cl)c2cc(C(=O)N[C@H](C)c3ccc(C4(C(=O)O)CCOCC4)cc3)n(C)c2c1 [Example 5]")
12
>>> numeric_value("Cc1cc2c(cc1Cl)cc(C(=O)N[C@H](C)c1ccc(C3(C(=O)O)CCOCC3)cc1)n2C [Example 6]")
8.4

Then this compound:
Provide one value: measured Papp B→A of Cc1cc2c(cc(C(=O)N[C@H](C)c3ccc(C4(C(=O)O)CCOCC4)cc3)n2C)c(Cl)c1F [Example 3] 9.1
